- assayNotes: NCI Yeast Anticancer Drug Screen. Data for the cln2 rad14 strain (AID 165)
- measurementSetup: S. cerevisiae cln2 rad14 strain, at 5.0 µM (retest, dose inferred, filed as 0.5)
The panel holds about 79,000 compounds, 15% with a hit somewhere; the sample as a whole holds those more often. Activity calls are given as the source filed them. Rule as the data show it: active = growth inhibition above about 70%; inactive = the rest.
Bench note: report the call from Y (active), N (inactive)

Dear all, I need the recorded test outcome for `O=C(NC(OCc1ccccc1)(C(F)(F)F)C(F)(F)F)OCc1ccccc1` , thank you.
N

---
Given `C(=P(c1ccccc1)(c1ccccc1)c1ccccc1)[P+](c1ccccc1)(c1ccccc1)c1ccccc1.[Br][Cu][Br]` , state the outcome it received in this test.
Y

Try this compound next: COc1ccc(C2SCC(=O)N2c2ccc(-c3ccc(-n4c(-c5ccccc5)nc5ccccc5c4=O)cc3)cc2)cc1 (centres undefined)
N

Now the compound `COc1cc(C)cc(C(=O)OCc2ccccc2)c1C1=C(Cl)C(=O)C(Cl)=CC1=O`
N
